biological target: NAD(P)H dehydrogenase [quinone] 1 (Homo sapiens) (UniProt P15559); experiment: Kinetic analysis using purified human DT-diaphorase.
Sequence (P15559 whole entry): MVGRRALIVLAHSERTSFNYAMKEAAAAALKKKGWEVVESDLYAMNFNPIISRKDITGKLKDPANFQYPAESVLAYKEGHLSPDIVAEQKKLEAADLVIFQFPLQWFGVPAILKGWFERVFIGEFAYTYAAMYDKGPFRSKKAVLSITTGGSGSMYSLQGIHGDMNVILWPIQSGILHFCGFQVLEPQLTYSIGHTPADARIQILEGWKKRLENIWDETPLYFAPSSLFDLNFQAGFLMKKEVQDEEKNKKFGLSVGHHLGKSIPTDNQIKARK
# k cat per record follows

Compound	k cat, s⁻¹
CC(=O)OCC1=CC(=O)c2ccccc2C1=O	280
CC1=C(COP(=O)(N(C)CCBr)N(C)CCBr)C(=O)c2ccccc2C1=O	180
CC1=C(COP(N)(=O)N(CCBr)CCBr)C(=O)c2ccccc2C1=O (centres undefined)	63
CC1=CC(=O)c2ccccc2C1=O	700
CN(CCBr)P(=O)(OCC1=CC(=O)c2ccccc2C1=O)N(C)CCBr	115
NP(=O)(OCC1=CC(=O)c2ccccc2C1=O)N1CCOCC1 (centres undefined)	15
NP(=O)(OCC1=CC(=O)c2ccccc2C1=O)N(CCBr)CCBr (centres undefined)	46
O=C1C=C(COP(=O)(NCCCl)NCCCl)C(=O)c2ccccc21	88
NP(=O)(OCC1=CC(=O)c2ccccc2C1=O)N(CCCl)CCCl (centres undefined)	51
